Please provide measured gcPBM binding intensity (ln) for the entries that follow.
- Test system: PfHDP1 homeodomain (GST-tagged)
- experiment summary: gcPBM binding intensity (ln(normalized median fluorescence intensity)); higher = stronger DNA binding
The full ranking holds about 25,000 sequences; the median of “ln(normalized median fluorescence intensity)” is about 6.7, and the highest 2% start at about 10. This excerpt belongs to a sample that is enriched for the highest values.
One number for each entry.

In the examples that follow, each entry is paired with its recorded gcPBM binding intensity (ln).
monomer sequence	target or system	gcPBM binding intensity (ln)
TATGTGTATAATAAAAGTACATATATTATTATATAA [XGTACX_site8556]	PfHDP1 homeodomain (GST-tagged)	6.35
TAAAAATTGCACAGAAGTACAGTATAAATATATATA [XGTACX_site3421]	PfHDP1 homeodomain (GST-tagged)	10.2
AAAAAATTAACGAGTGCACACATATTTAGATAAAAT [CACACA_site8958]	PfHDP1 homeodomain (GST-tagged)	10.7
TGTATGTTTGGGTGCACACATAAATATTATATATAG [CACACA_site3397]	PfHDP1 homeodomain (GST-tagged)	10.2
GAAAAATTAAAAATAACACACACATATATATATTTA [CACACA_site8896]	PfHDP1 homeodomain (GST-tagged)	6.38
ATATTTATAAATTGCACACAAATAATAACATTCTAT [CACACA_site2357]	PfHDP1 homeodomain (GST-tagged)	10.4
TGTGTATATGTGCAAAGTACAAAAAAGAAATTATTT [XGTACX_site7569]	PfHDP1 homeodomain (GST-tagged)	9.87
ATATATTATGGGTGTGCACACAATATTTATATGTTC [CACACA_site2270]	PfHDP1 homeodomain (GST-tagged)	10.9

Hi! Can you tell me gcPBM binding intensity (ln) for each of these sequences?
1. TGTATTATATATACACAAATATTTATGTGTGTGTTT [XGTACX_negctrl_site475]
2. AAAATTAAAAATAACACACACATATTTATATTTATA [CACACA_site7329]
3. ACATGTCAAACATTTGCACACAAAAAAATAAAAATT [CACACA_site691]
4. TAAATTATAACGTGCACACATATTTAAAATGAAATG [CACACA_site2820]
5. GTGAAATATGCAAACACACACGAGAAAAATGTATAT [CACACA_site7488]

output:
[6.71, 6.24, 10.2, 10, 6.99]
